# IC50 listing for each entry below
Test system: Hepatitis C virus
Assay: Antiviral activity against HCV infected in human hepatoma cells assessed as inhibition of viral replication
Type: functional, organism-based, Hepacivirus hominis

>  <molecule_smiles>
CC(C)CCOc1ccc(C[C@H](NC(=O)[C@@H](/C=C/CCCCCCC(=O)Cc2ccccn2)[C@@](O)(CC(=O)O)C(=O)O)C(=O)O)cc1

>  <IC50>
> 1 µM

$$$$

I looked up CCCCCCCC(=O)CCCCCC/C=C/[C@H](C(=O)N[C@@H](CC1CCCCC1)C(=O)O)[C@@](O)(CC(=O)O)C(=O)O and its IC50 for Hepatitis C virus was > 5 µM

The measured IC50 that CCCCCCCC(=O)CCCCCC/C=C/[C@H](C(=O)N[C@H](Cc1ccc(OCCC(C)C)cc1)C(=O)O)[C@@](O)(CC(=O)O)C(=O)O showed for Hepatitis C virus is > 5 µM

// data source = ChEMBL document CHEMBL2311448
